Reported ECL Signal [10 nM Fab] values for a set of binders
Biological target: T1, Recombinant Human DLL4 (delta-like protein 4) (human, UniProt Q9NR61 27-524)
T1 construct: Bought recombinant human DLL4 (R&D Systems Cat#1506-D4/CF); also called rHuman DLL4
Assay: ECL (MSD) binding assay, immobilised DLL4, 10 nM Fab;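 note: fab binding read as electrochemiluminescence via a TAG-labelled detection antibody, 1 h incubations at 20 °C, antigen signal compared with each well's blank, ratio of at least 4 scored as binder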

BINDER	ECL Signal [10 nM Fab]
Fab VH5-51_IGHD5-18*01>3_IGHJ4*01 G100K/G104T & V3-4_IGLJ1*01 (Fab, V domains shown, Fab; expressed with CH1 (His and Flag tags) and lambda CL from the expression plasmids; also called H:KT & L:wt; KT double mutant) VH: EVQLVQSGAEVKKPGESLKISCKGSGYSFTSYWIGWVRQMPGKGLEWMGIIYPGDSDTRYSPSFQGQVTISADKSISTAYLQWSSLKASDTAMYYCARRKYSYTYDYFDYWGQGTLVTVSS VL: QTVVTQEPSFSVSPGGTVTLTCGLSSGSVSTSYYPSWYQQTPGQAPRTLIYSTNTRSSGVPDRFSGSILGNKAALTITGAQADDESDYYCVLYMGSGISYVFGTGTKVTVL	42900
Fab VH5-51_IGHD5-18*01>3_IGHJ4*01 G100K/G104T & V3-4_IGLJ1*01 V91G (Fab, V domains shown, Fab; expressed with CH1 (His and Flag tags) and lambda CL from the expression plasmids; also called H:KT & V91G) VH: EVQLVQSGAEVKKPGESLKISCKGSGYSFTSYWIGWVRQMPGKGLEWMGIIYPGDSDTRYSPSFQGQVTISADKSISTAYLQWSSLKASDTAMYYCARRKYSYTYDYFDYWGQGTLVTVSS VL: QTVVTQEPSFSVSPGGTVTLTCGLSSGSVSTSYYPSWYQQTPGQAPRTLIYSTNTRSSGVPDRFSGSILGNKAALTITGAQADDESDYYCGLYMGSGISYVFGTGTKVTVL	45300
Fab VH5-51_IGHD5-18*01>3_IGHJ4*01 G100K/G104T & V3-4_IGLJ1*01 V91T (Fab, V domains shown, Fab; expressed with CH1 (His and Flag tags) and lambda CL from the expression plasmids; also called H:KT & V91T) VH: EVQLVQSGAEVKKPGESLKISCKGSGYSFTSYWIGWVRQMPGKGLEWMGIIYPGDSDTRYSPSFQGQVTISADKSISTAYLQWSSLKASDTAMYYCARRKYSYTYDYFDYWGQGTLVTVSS VL: QTVVTQEPSFSVSPGGTVTLTCGLSSGSVSTSYYPSWYQQTPGQAPRTLIYSTNTRSSGVPDRFSGSILGNKAALTITGAQADDESDYYCTLYMGSGISYVFGTGTKVTVL	32700
